System: S. epidermidis, 56500
protocol-details: antibacterial activity (MIC), standard method of the Japan Society of Chemotherapy
Assay type: cell-based
property-name: MIC

INSERT INTO results (compound, test_value) VALUES
  ('COc1c(N2CCC(C(N)C3CC3)C2)ccc2c(=O)c(C(=O)O)cn(C3CC3)c12 (stereo not shown)', '0.025 µg/mL'),
  ('Nc1c(F)c(N2CCC(C(N)C3CC3)C2)c(F)c2c1c(=O)c(C(=O)O)cn2C1CC1F (stereo not shown)', '≦0.003 μg/ml'),
  ('Cc1c(N2CCC(C(N)C3CC3)C2)c(F)c(N)c2c(=O)c(C(=O)O)cn(C3CC3F)c12 (stereo not shown)', '≦0.003 μg/ml'),
  ('COc1c(N2CCC(C(N)C3CC3)C2)c(F)cc2c(=O)c(C(=O)O)cn(C3CC3F)c12 (stereo not shown)', '0.006 µg/mL');
